Test: Phase 1 Part 3 plasma pharmacokinetics (moderate to severe asthma)
Type: in vivo, human
Conditions: human, plasma, inhaled, 4 mg, 4 mg BID, Day 10, read-out: AUC0-∞ Mean
Endpoint name: AUC(0-inf) (ng·h/mL)
One number for each entry, in ng·h/mL.

What the record says about Cn1c(=O)n([C@H]2CCCN(C(=O)CC#N)C2)c2nc(-c3cnn4ccccc34)ccc21 : AUC(0-inf) is 439

###

Experiment: Phase 1 Part 2 plasma pharmacokinetics (mild asthma)
Format: in vivo, human
Details: human, plasma, inhaled, 2 mg, 2 mg QD, Day 10, read-out: AUC0-12 hours Mean
Endpoint name: AUC0-12h (ng·h/mL)
Give bare numbers, in ng·h/mL.

What the record says about Cn1c(=O)n([C@H]2CCCN(C(=O)CC#N)C2)c2nc(-c3cnn4ccccc34)ccc21 : AUC0-12h is 55.2
